src = patent US20260109776A1

Biological target: T1, mouse CD40 on cells (mouse, UniProt P27512 20-289)
T1 construct: whole, on cells; also called mouse CD40 on HEK293 cells; CD40 on mouse B cells
T1 sequence (looked up): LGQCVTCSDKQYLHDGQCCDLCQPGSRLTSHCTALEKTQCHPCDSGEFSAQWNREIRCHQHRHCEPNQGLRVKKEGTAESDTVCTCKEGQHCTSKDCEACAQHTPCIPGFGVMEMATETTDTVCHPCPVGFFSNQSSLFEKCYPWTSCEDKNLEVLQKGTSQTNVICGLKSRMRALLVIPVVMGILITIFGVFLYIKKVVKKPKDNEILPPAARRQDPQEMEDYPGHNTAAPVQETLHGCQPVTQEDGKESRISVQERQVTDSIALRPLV
Experiment: flow cytometry, HEK293 transfectants
measured endpoint: binding result

39C2 (antibody, IgG4, V domains shown, also called 4887-1) VH: QVQLVQSGTEVKKPGASVKVSCKASGYTFPGYYMHWVRQAPGQGLEWMGWINPDSGGTKYTQKFQGRVTLTRDASVSTAYIDLNRLRSDDTAVYYCARERCRTTNCYLDYWGQGSLVTVSS VL: QSALTQPASVSGSPGQSITISCTGTSSDVGNYNLVSWYQQHPGKAPKLMIYEVNRRPSGVSNRFSGSKSGNTASLTISGLQAEDEAEYYCCSYAGRDTFVVFGGGTKLTVLG ... no binding
33H6 (antibody, IgG4, V domains shown, also called 4883-1) VH: QVQLVQSGAEVKKPGASVKVSCKASGYTFPGYYMYWLRQAPGQGLEWMGWINPDSGDTNYAQKFQGRVTMTRDTSISTAFMELSRLRSDDTAVYYCAREKPRYFDSFYYYLMDVWGQGTTVTVSS VL: DIQMTQSPSSLSASVGDRVTITCRAGQNISRHLNWYQQNPGKAPKVLIHPASSLPSGVPSRFSGSGSGTDFSLTISSLQPEDFGTYFCQQSYSTPPTFGGGTKVELKR ... no binding
33H9 (antibody, IgG4, V domains shown, also called 4897-1) VH: QVQLVESGGGVVQPGRSLRLSCAASGFTFSSHGMHWVRQPPGKGLEWVAVIWYDGSNEYYGDSVKGRFTISRDNSKNTLYLQMNSLRVEDTAVYYCTRGGGHWNYEGHYYGMDVWGQGTTVTVSS VL: QAVPTQPSSLSASPGASASLTCTLRSGINVGSSRIYWYQQKPGSPPQFLLRYTSDSDKLQGSGVPSRFSGSKDASANAGLLLISGLQSEDEADYYCMIWHSSAVVFGGGTKLTVLG ... no binding
